Quick record of GI50 values for T-47D.
measurement.label: GI50 (µM)

C=C1CCC2C3(C)COC(c4cn(-c5ccccc5)nc4-c4cccc(F)c4)OC3CCC2(C)C1CC=C1C(=O)OCC1O (stereo not shown) [1c]: 1.39
C=C1CCC2C3(C)COC(c4cn(-c5ccccc5)nc4-c4ccc(F)cc4)OC3CCC2(C)C1CC=C1C(=O)OCC1O (stereo not shown) [1f]: 1.19
C=C1CCC2C3(C)COC(c4cn(-c5ccccc5)nc4-c4cccc([N+](=O)[O-])c4)OC3CCC2(C)C1CC=C1C(=O)OCC1O (stereo not shown) [1b]: 1.76
C=C1CCC2C3(C)COC(c4cn(-c5ccccc5)nc4-c4cccc(Cl)c4)OC3CCC2(C)C1CC=C1C(=O)OCC1O (stereo not shown) [1d]: 1.63
C=C1CCC2C3(C)COC(c4cn(-c5ccccc5)nc4-c4ccccc4)OC3CCC2(C)C1CC=C1C(=O)OCC1O (stereo not shown) [1a]: 1.42
C=C1CCC2C3(C)COC(c4cn(-c5ccccc5)nc4-c4ccc(C)cc4)OC3CCC2(C)C1CC=C1C(=O)OCC1O (stereo not shown) [1i]: 1.14
C=C1CCC2C3(C)COC(c4cn(-c5ccccc5)nc4-c4cccc(Br)c4)OC3CCC2(C)C1CC=C1C(=O)OCC1O (stereo not shown) [1e]: 2.29

----------
test system: SK-MEL-5; conditions: read-out: 50% lethal concentration (LC50); SK-MEL-5, Melanoma
measurement.label: CC50 (µM)

C=C1CCC2C3(C)COC(c4cn(-c5ccccc5)nc4-c4ccc(F)cc4)OC3CCC2(C)C1CC=C1C(=O)OCC1O (stereo not shown) [1f]: 5.47
C=C1CCC2C3(C)COC(c4cn(-c5ccccc5)nc4-c4ccc(OC)cc4)OC3CCC2(C)C1CC=C1C(=O)OCC1O (stereo not shown) [1j]: 5.41
C=C1CCC2C3(C)COC(c4cn(-c5ccccc5)nc4-c4cccc(Br)c4)OC3CCC2(C)C1CC=C1C(=O)OCC1O (stereo not shown) [1e]: 5.39
C=C1CCC2C3(C)COC(c4cn(-c5ccccc5)nc4-c4ccccc4)OC3CCC2(C)C1CC=C1C(=O)OCC1O (stereo not shown) [1a]: 5.2
C=C1CCC2C3(C)COC(c4cn(-c5ccccc5)nc4-c4ccc(C)cc4)OC3CCC2(C)C1CC=C1C(=O)OCC1O (stereo not shown) [1i]: 5.49
C=C1CCC2C3(C)COC(c4cn(-c5ccccc5)nc4-c4cccc(Cl)c4)OC3CCC2(C)C1CC=C1C(=O)OCC1O (stereo not shown) [1d]: 5.53
C=C1CCC2C3(C)COC(c4cn(-c5ccccc5)nc4-c4ccc(Br)cc4)OC3CCC2(C)C1CC=C1C(=O)OCC1O (stereo not shown) [1h]: 5.44

----------
test system: SF-295; settings: read-out: 50% lethal concentration (LC50); SF-295, CNS
Reported CC50 values for the following compounds.
measurement.label: CC50 (µM)

C=C1CCC2C3(C)COC(c4cn(-c5ccccc5)nc4-c4ccc(Cl)cc4)OC3CCC2(C)C1CC=C1C(=O)OCC1O (stereo not drawn) [1g]: 5.51
C=C1CCC2C3(C)COC(c4cn(-c5ccccc5)nc4-c4cccc(Cl)c4)OC3CCC2(C)C1CC=C1C(=O)OCC1O (stereo not drawn) [1d]: 5.36
C=C1CCC2C3(C)COC(c4cn(-c5ccccc5)nc4-c4cccc(Br)c4)OC3CCC2(C)C1CC=C1C(=O)OCC1O (stereo not drawn) [1e]: 5.3
